target: OR52E8 (Homo sapiens, UniProt Q6IFG1); construct: expressed in transfected cells; host or cells: HEK293T stably expressing human RTP1S(V227I) and RTP2(L220R); test: cell-based; assay type: cell-based; conditions: wild-type; read-out: Potency EC50
pEC50: −log10 of the molar value.
experimental_endpoint: pEC50

Req: Endpoint output: pEC50 of CCCC(C)(O)CC(=O)O (stereo not shown) [3-Methyl-3-Hydroxy-Hexanoic acid] . Value?
Resp: < 3.50

* * *

biological target: OR7A17 (Homo sapiens, UniProt O14581, D296E/I297V/R299D); assay: Luciferase dose-response, wild-type vs changed C-terminus (SEQ ID NO: 86); settings: changed C-term SEQ ID NO: 86; read-out: Potency EC50
Sequence (O14581 with tags, fused parts or gaps D296E/I297V/R299D): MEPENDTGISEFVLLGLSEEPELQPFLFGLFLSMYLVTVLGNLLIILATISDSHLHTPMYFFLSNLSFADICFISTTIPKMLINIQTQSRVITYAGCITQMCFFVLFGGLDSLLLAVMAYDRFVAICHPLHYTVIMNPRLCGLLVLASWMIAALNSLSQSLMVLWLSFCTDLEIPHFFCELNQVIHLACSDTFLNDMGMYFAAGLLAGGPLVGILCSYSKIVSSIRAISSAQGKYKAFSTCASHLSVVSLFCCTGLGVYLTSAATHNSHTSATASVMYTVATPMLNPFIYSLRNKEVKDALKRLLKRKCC
experimental_endpoint: EC50 (nM)
Give the value, in units of nM, as a plain number.

Req: // query EC50 value for entry CC1(C)CCCC2(C)C1CCC1(C)OCCC12 (stereo not shown) [Ambrofix]
Resp: 1300

* * *

Target: OR identified in the library screening (receptor named per line) (Homo sapiens, UniProt Q8NGJ0)
Sequence (Q8NGJ0 1-315): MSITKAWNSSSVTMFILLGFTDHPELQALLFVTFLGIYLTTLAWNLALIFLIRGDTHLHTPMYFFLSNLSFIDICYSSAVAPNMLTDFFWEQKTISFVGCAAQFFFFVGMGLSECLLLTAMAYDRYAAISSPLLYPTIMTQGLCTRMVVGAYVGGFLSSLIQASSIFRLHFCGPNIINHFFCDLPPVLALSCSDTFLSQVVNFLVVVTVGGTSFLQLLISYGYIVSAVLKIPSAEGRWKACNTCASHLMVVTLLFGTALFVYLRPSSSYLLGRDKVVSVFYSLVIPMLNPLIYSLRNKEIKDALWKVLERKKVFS
Experiment: Confirmatory dose-response of library hits, wild-type OR vs OR with C-terminus SEQ ID NO: 221 (Table 17)
experimental_endpoint: pEC50
Please keep in mind that pEC50 is minus log10 of the molar concentration; only the number is needed.

Req: Which pEC50 value is on record for CC(=O)/C=C/C1=C(C)CCCC1(C)C ?
Resp: 4.32

* * *

target: OR10A6(A117V,V140G,L287P) (Homo sapiens, UniProt Q8NH74, A117V/L287P/V140G); construct: expressed in transfected cells; host or cells: HEK293T stably expressing human RTP1S(V227I) and RTP2(L220R) (general method); test: Luciferase assay with odorant mixtures/single ingredients, OR with SEQ ID NO: 221; format: cell-based
Sequence (Q8NH74 with tags, fused parts or gaps A117V/V140G/L287P): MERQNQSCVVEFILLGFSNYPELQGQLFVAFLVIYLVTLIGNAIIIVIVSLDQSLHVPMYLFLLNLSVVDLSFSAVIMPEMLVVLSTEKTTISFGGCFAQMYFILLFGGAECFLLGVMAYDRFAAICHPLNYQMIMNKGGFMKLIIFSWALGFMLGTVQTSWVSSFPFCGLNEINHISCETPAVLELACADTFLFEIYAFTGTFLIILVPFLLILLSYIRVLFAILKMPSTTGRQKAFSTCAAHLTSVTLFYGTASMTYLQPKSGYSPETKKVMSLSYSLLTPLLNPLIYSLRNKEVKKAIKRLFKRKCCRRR
Label scheme for EC2 (concentration for 2-fold luciferase induction): lower than 1 µM is 0.0, 1 µM and above is 1.0.

Take a look at these entries with their results.
CCCCCC1CCCC(=O)O1 (stereo not drawn) [Decalactone delta] | 1.0
CCCCCCCCC1CCC(=O)O1 (stereo not drawn) [Dodecalactone gamma] | 0.0

Req: Identify whether the reported EC2 (concentration for 2-fold luciferase induction) of the following compound is 1 µM or greater: CC1=CCC(C(C)CC2CCCC2=O)CC1 (stereo not drawn) [Nectaryl]
Resp: 1.0

Req: Determine whether measured EC2 (concentration for 2-fold luciferase induction) meets or exceeds 1 µM for CCCCCCCC1CCCC(=O)O1 (stereo not drawn) [Dodecalactone delta]
Resp: 1.0

Req: Entry CCCCCC1CCC(=O)O1 (stereo not drawn) [Nonalactone gamma] : is its EC2 (concentration for 2-fold luciferase induction) no less than 1 µM?
Resp: 1.0

Req: Is the recorded value of EC2 (concentration for 2-fold luciferase induction) equal to or greater than 1 µM for this compound? CCCCCCCC1CCC(=O)O1 (stereo not drawn) [Undecalactone gamma]
Resp: 0.0

Req: Does CCCCCCC1CCC(=O)O1 (stereo not drawn) [Decalactone gamma] have a reported EC2 (concentration for 2-fold luciferase induction) of at least 1 µM?
Resp: 1.0
